- targetOfAssay: porcine pancreatic α-amylase (Sus scrofa)
- Construct: α-amylase [EC 3.2.1.1) Type VI B: from porcine pancreas]; purchased Sigma Chemical Co., St Louis, Mo., USA; host or cells: porcine pancreas (natural source)
- Sequence (P00690 16-511): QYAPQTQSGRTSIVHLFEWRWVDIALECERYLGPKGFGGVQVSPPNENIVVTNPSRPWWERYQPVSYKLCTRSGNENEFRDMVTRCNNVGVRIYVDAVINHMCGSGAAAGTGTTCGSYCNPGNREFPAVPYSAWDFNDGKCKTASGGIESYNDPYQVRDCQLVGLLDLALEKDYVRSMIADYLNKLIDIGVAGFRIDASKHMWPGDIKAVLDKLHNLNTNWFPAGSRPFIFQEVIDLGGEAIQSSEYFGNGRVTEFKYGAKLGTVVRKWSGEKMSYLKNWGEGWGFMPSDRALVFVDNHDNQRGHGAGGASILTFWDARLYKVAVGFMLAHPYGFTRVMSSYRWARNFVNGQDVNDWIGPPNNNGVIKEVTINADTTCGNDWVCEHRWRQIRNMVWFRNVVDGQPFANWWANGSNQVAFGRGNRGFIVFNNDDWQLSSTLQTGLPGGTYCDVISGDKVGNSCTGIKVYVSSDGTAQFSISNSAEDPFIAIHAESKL
- experimentalProtocol: α-Amylase inhibition assay
- Format: biochemical
- recordedConditions: 10 mg per ml; a/b marks the respective control (Control-1 2.147, Control-2 3.429)
assayMetric: Maltose released (mg/mL)
Your answer should be a plain number; it is taken to be in mg/mL.

Task item: Answer with the recorded Maltose released for the compound listed here: Cc1sc2nc3c(c(N)c2c1C)CCCC3
Reply: 2.095

Task item: Answer with the recorded Maltose released for the compound listed here: Cc1sc2nc3c(c(N)c2c1C)CCCCC3
Reply: 3.496

Task item: Answer with the recorded Maltose released for the compound listed here: Nc1c2c(nc3sc4c(c13)CCC4)CCCCCC2
Reply: 1.028

Task item: Answer with the recorded Maltose released for the compound listed here: CC1CCc2c(nc3sc4c(c3c2N)CCCC4)C1 (centres unmarked)
Reply: 2.163

Task item: Answer with the recorded Maltose released for the compound listed here: Nc1c2c(nc3sc4c(c13)CCC4)CCCC2
Reply: 2.210

Task item: Answer with the recorded Maltose released for the compound listed here: Nc1c2c(nc3sc4c(c13)CCCCC4)CCC2
Reply: 3.972

Task item: Answer with the recorded Maltose released for the compound listed here: Cc1sc2nc3c(c(N)c2c1C)CCC3
Reply: 2.20

Task item: Answer with the recorded Maltose released for the compound listed here: Nc1c2c(nc3sc4c(c13)CCC4)CCC2
Reply: 1.278

Task item: Answer with the recorded Maltose released for the compound listed here: CC1CCc2c(nc3sc4c(c3c2N)CCC4)C1 (centres unmarked)
Reply: 1.179

Task item: Answer with the recorded Maltose released for the compound listed here: Nc1c2c(nc3sc4c(c13)CCCC4)CCCCC2
Reply: 0.913

Task item: Answer with the recorded Maltose released for the compound listed here: Nc1c2c(nc3sc4c(c13)CCCC4)CCC2
Reply: 3.226

Task item: Answer with the recorded Maltose released for the compound listed here: Nc1c2c(nc3sc4c(c13)CCCC4)CCCC2
Reply: 2.548

Task item: Answer with the recorded Maltose released for the compound listed here: Nc1c2c(nc3sc4c(c13)CCCCC4)CCCC2
Reply: 3.282

Task item: Answer with the recorded Maltose released for the compound listed here: Nc1c2c(nc3sc4c(c13)CCC4)CCCCC2
Reply: 1.492

* * *

- Tested on: Wistar rats
- experimentalProtocol: Antidiabetic activity by starch loaded model
- Assay type: in vivo, rat
- recordedConditions: 60 min after starch; test compounds 100 mg/kg, Acarbose 10 mg/kg oral; in mg/dL (unit assumed)
assayMetric: Blood glucose level, 60 min
Lab note: record the figure alone, no unit after it.

Task item: Answer with the recorded Blood glucose level, 60 min for the compound listed here: CC1CCc2c(nc3sc4c(c3c2N)CCC4)C1 (centres unmarked)
Reply: 123.03

Task item: Answer with the recorded Blood glucose level, 60 min for the compound listed here: Nc1c2c(nc3sc4c(c13)CCC4)CCCCCC2
Reply: 125.13

Task item: Answer with the recorded Blood glucose level, 60 min for the compound listed here: Nc1c2c(nc3sc4c(c13)CCC4)CCCC2
Reply: 102.80

Task item: Answer with the recorded Blood glucose level, 60 min for the compound listed here: C[C@H]1O[C@H](O[C@H]2[C@H](O)[C@@H](O)[C@@H](O[C@H]3[C@H](O)[C@@H](O)C(O)O[C@@H]3CO)O[C@@H]2CO)[C@H](O)[C@@H](O)[C@@H]1N[C@H]1C=C(CO)[C@@H](O)[C@H](O)[C@H]1O (some centres unmarked) [Acarbose, reference compound]
Reply: 110.17

Task item: Answer with the recorded Blood glucose level, 60 min for the compound listed here: Nc1c2c(nc3sc4c(c13)CCC4)CCC2
Reply: 110.82

* * *

- Test system: Wistar rats
- experimentalProtocol: Freund's complete adjuvant (FCA) induced arthritis
- Type: in vivo, rat
- recordedConditions: BN compounds 100 mg/kg, indomethacin 2.5 mg/kg daily; in mL (unit assumed)
- Procedure: Induction of Arthritis: Arthritis was induced by injecting Freund's complete adjuvant (FCA. Required quantity of FCA was weighed and suspension made with paraffin oil (DIFCO Laboratories) and administered at dose of 0.5 mg/rat in subplantar region of the right hind paw. After 7 days, a booster injection was given to all animals to hind paws. Experimental Design Animals were divided into 6 groups of 6 rats each and were designated as: […]
assayMetric: Paw volume, 21st Day
Lab note: record the figure alone, no unit after it.

Task item: Answer with the recorded Paw volume, 21st Day for the compound listed here: COc1ccc2c(c1)c(CC(=O)O)c(C)n2C(=O)c1ccc(Cl)cc1 [Indomethacin, reference compound]
Reply: 1.43

Task item: Answer with the recorded Paw volume, 21st Day for the compound listed here: Nc1c2c(nc3sc4c(c13)CCC4)CCCCC2
Reply: 1.59

Task item: Answer with the recorded Paw volume, 21st Day for the compound listed here: Cc1sc2nc3c(c(N)c2c1C)CCCCC3
Reply: 1.63

Task item: Answer with the recorded Paw volume, 21st Day for the compound listed here: Nc1c2c(nc3sc4c(c13)CCC4)CCCC2
Reply: 1.40

* * *

- Test system: Wistar rats
- experimentalProtocol: Antidiabetic activity by starch loaded model
- Type: in vivo, rat
- recordedConditions: 120 min after starch; test compounds 100 mg/kg, Acarbose 10 mg/kg oral
Task for the reader: assign each of the following molecules its reported % Increase in glucose, 120 min.
Form entry: enter the amount, then its unit.

Task item: Answer with the recorded % Increase in glucose, 120 min for the molecule listed here: Nc1c2c(nc3sc4c(c13)CCC4)CCCCCC2
Reply: 49.64%

Task item: Answer with the recorded % Increase in glucose, 120 min for the molecule listed here: C[C@H]1O[C@H](O[C@H]2[C@H](O)[C@@H](O)[C@@H](O[C@H]3[C@H](O)[C@@H](O)C(O)O[C@@H]3CO)O[C@@H]2CO)[C@H](O)[C@@H](O)[C@@H]1N[C@H]1C=C(CO)[C@@H](O)[C@H](O)[C@H]1O (some centres unmarked) [Acarbose, reference compound]
Reply: 30.27%

Task item: Answer with the recorded % Increase in glucose, 120 min for the molecule listed here: Nc1c2c(nc3sc4c(c13)CCC4)CCCC2
Reply: 32.21%

Task item: Answer with the recorded % Increase in glucose, 120 min for the molecule listed here: CC1CCc2c(nc3sc4c(c3c2N)CCC4)C1 (centres unmarked)
Reply: 42.80%

Task item: Answer with the recorded % Increase in glucose, 120 min for the molecule listed here: Nc1c2c(nc3sc4c(c13)CCC4)CCC2
Reply: 30.27%

* * *

- Tested on: crude intestinal α-glucosidase
- experimentalProtocol: In-vitro mammalian (rat intestinal) α-glucosidase inhibition assay
- Type: biochemical
- recordedConditions: highest concentration 5 mg/ml
# thresholds on Mammalian α Glucosidase Inhibition (Mean ± S.E) define classes: bottom end: < 10%; midrange: ≥ 10% and < 50%; top end: ≥ 50%

Task item: Please indicate the class for Cc1sc2nc3c(c(N)c2c1C)CCC3 based on its Mammalian α Glucosidase Inhibition (Mean ± S.E).
Reply: bottom end

Task item: Please indicate the class for Nc1c2c(nc3sc4c(c13)CCC4)CCCCC2 based on its Mammalian α Glucosidase Inhibition (Mean ± S.E).
Reply: bottom end

Task item: Please indicate the class for Cc1sc2nc3c(c(N)c2c1C)CCC(C)C3 (stereo not drawn) based on its Mammalian α Glucosidase Inhibition (Mean ± S.E).
Reply: midrange

Task item: Please indicate the class for Nc1c2c(nc3sc4c(c13)CCCC4)CCCCC2 based on its Mammalian α Glucosidase Inhibition (Mean ± S.E).
Reply: midrange

Task item: Please indicate the class for Nc1c2c(nc3sc4c(c13)CCCC4)CCC2 based on its Mammalian α Glucosidase Inhibition (Mean ± S.E).
Reply: bottom end

Task item: Please indicate the class for Nc1c2c(nc3sc4c(c13)CCCCC4)CCC2 based on its Mammalian α Glucosidase Inhibition (Mean ± S.E).
Reply: midrange

Task item: Please indicate the class for Cc1sc2nc3c(c(N)c2c1C)CCCCC3 based on its Mammalian α Glucosidase Inhibition (Mean ± S.E).
Reply: midrange

Task item: Please indicate the class for Nc1c2c(nc3sc4c(c13)CCC4)CCCCCC2 based on its Mammalian α Glucosidase Inhibition (Mean ± S.E).
Reply: top end

Task item: Please indicate the class for Nc1c2c(nc3sc4c(c13)CCC4)CCC2 based on its Mammalian α Glucosidase Inhibition (Mean ± S.E).
Reply: top end

Task item: Please indicate the class for Nc1c2c(nc3sc4c(c13)CCC4)CCCC2 based on its Mammalian α Glucosidase Inhibition (Mean ± S.E).
Reply: top end

Task item: Please indicate the class for Cc1sc2nc3c(c(N)c2c1C)CCCC3 based on its Mammalian α Glucosidase Inhibition (Mean ± S.E).
Reply: midrange

Task item: Please indicate the class for CC1CCc2c(nc3sc4c(c3c2N)CCC4)C1 (stereo not drawn) based on its Mammalian α Glucosidase Inhibition (Mean ± S.E).
Reply: top end

Task item: Please indicate the class for Nc1c2c(nc3sc4c(c13)CCCCC4)CCCC2 based on its Mammalian α Glucosidase Inhibition (Mean ± S.E).
Reply: bottom end

Task item: Please indicate the class for Nc1c2c(nc3sc4c(c13)CCCC4)CCCC2 based on its Mammalian α Glucosidase Inhibition (Mean ± S.E).
Reply: midrange
